# target desc: PD-1/PD-L1 interaction (Homo sapiens)
# Construct: expressed in transfected cells; host or cells: CHO cells (aAPC-PD-L1) co-cultured with Jurkat cells overexpressing PD-1 and an NFAT-luciferase reporter
# Sequence (Q9NZQ7 19-290): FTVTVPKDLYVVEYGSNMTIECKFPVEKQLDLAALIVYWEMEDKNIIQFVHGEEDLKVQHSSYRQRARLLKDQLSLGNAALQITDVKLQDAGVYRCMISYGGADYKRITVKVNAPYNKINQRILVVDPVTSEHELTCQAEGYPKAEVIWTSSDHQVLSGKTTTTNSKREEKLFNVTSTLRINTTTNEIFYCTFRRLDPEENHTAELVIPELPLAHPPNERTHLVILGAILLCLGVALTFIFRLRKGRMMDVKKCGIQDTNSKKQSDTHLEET
# test summary: PD-1/PD-L1 NFAT reporter co-culture assay
# Type: cell-based
# particulars: Jurkat PD-1 NFAT-luciferase cells co-cultured with aAPC-PD-L1 CHO cells, 6 hrs at 37° C.; read-out: EC50 NFAT Luciferase
measure name: pEC50
Worth noting: pEC50 values are minus log10 of concentrations stated in mol/L.

Solved entries (count: 3):
COc1nc(OCc2cccc(-c3cccc(COc4nc(OC)c(CNCC(O)C(F)F)cc4Cl)c3C)c2C)c(Cl)cc1CNCC(O)C(F)F (stereo not drawn) [Example 176] :: 5.54
COc1nc(-c2cccc(-c3cccc4c3CC[C@@H]4Oc3nc(OC)c(CN4CC5(C(=O)O)CCC4CC5)cc3Cl)c2Cl)ccc1CNC[C@@H]1CCC(=O)N1 [Example 766] :: 7.68
COc1nc(-c2cccc(-c3cccc4c3CC[C@@H]4Oc3nc(OC)c(CN[C@@](C)(CO)C(=O)O)cc3Cl)c2Cl)ccc1CN[C@@H]1CCC[C@@H]1O [Example 645] :: 7.52

For reference, reported pEC50 for COc1nc(OCc2cccc(-c3cccc(COc4nc(OC)c(CNCCC(=O)O)cc4Cl)c3C)c2C)c(Cl)cc1CNCCC(=O)O [Example 172] stands at 6.86

// pEC50 lookup, molecule = Cc1c(COc2cc(OCc3cncc(C#N)c3)c(CNC[C@@H](O)CC(=O)O)cc2Cl)cccc1-c1cccc(-c2ccc(CNC[C@@H](O)CC(=O)O)cc2)c1C [Example 384] , result: 6.81

Reported pEC50 of Cc1c(COc2cc(OCc3cncc(C#N)c3)c(CNCCO)cc2Br)cccc1-c1cccc(COc2cc(OCc3cncc(C#N)c3)c(CNCCO)cc2Br)c1C [Example 254] : 6.16
